Assay: Plasma toxicokinetics after single gavage administration in rats
Type: in vivo, Harlan Sprague Dawley rats
Conditions: male, Hsd:Sprague Dawley SD, rat, plasma, po, 110 mg/kg
Metric: Tmax (h)
# value in h; strip the unit string

Prompt: Data request, read-out Tmax, for "Oc1ccc(C(c2ccc(O)cc2)(C(F)(F)F)C(F)(F)F)cc1"
Response: 1.43

---

Experiment: Plasma toxicokinetics after single intravenous administration in mice
Type: in vivo, B6C3F1/N mice
Details: male, B6C3F1/N, mouse, iv, 34 mg/kg, K10 Half-Life, free BPAF, male mice, 34 mg/kg IV, mean (SE)
Metric: half-life (min)
Give the number; min is assumed, so skip it.

Prompt: Give the measured half-life of "Oc1ccc(C(c2ccc(O)cc2)(C(F)(F)F)C(F)(F)F)cc1" .
Response: 41.9
